Sourced from the RNAGym collection of RNA variant scans (doi:10.7554/elife.80360)

B1: Hairpin Ribozyme (parent)
chain: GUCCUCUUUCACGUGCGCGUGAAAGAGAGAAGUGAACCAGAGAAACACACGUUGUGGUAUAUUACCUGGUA

variants of: B1; assay: self-cleavage, relative activity (ratio to wild type); higher = more cleavage; co-transcriptional
self-cleavage below 0.2 gives NOT MET; self-cleavage at or above it gives MET.

The following variants have reported results that may help.
ALTERATION	CLASS
G32A U70C	NOT MET
G1A A11C	NOT MET
U2C U33G	NOT MET

Hi team, for A61U C66G , is the recorded self-cleavage at or above 0.2?
MET

Field entry: A22U U52G
MET

Field entry: C12A G19A
MET

Field entry: A59C U63A
NOT MET

Field entry: A41C A61G
MET
